# target: T1, human GLP-1 receptor (human, UniProt P43220 24-463)
# T1 construct: whole, on cells
# method.description: competitive binding (SPA), displacement of 125I-GLP-1(7-36)NH2 from membranes with human GLP-1 receptor, high HSA (2.0% w/v)
Non-standard residues stand in square brackets, D forms with d. No end group written: not given here. Aib = CC(C)(N)C(=O)O
So I've got a bunch of binders here, and I need their IC50 values.
Quick reminder: number only, in nM, skip the unit.

Qu. Given the binder HPEGTFTSDVSSYLEEQAAREFIAWLVKGRG [[Pro8,Glu22,Arg26]-GLP-1-(7-37)-peptide] , what is its reported IC50?
Ans. 0.035

Qu. What do we get for HWEGTFTSDVSSYLEGQAAKEFIAWLVKGRG (also called 8W GLP-1(7-37)) [[Trp8]-GLP-1-(7-37)-peptide] ?
Ans. 0.208

Qu. What do we get for H[Aib]EGTFTSDVSSYLEEQAAREFIAWLVRGRPK (also: Lys32 acylated as, structure not given here) [Comparative Example 11A (Example 10 of WO 2016/083499)] ?
Ans. 34.4

These entries and their values trace back to patent US20190038721A1.
